# Test target: human P2X3 receptor (Homo sapiens (Human), UniProt P56373)
# Sequence (P56373 whole entry): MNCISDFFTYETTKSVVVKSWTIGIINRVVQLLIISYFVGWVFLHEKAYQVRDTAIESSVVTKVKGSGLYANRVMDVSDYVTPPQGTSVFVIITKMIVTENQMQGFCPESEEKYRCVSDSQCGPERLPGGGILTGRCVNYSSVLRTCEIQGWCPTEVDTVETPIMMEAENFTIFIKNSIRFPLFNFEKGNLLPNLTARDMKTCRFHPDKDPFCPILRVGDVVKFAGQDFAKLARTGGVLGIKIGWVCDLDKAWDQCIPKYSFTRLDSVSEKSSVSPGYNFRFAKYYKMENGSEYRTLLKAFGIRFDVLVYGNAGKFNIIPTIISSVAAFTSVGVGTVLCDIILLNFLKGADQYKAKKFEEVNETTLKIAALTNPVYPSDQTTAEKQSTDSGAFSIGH
# Procedure text: Evaluation of human P2X3 receptor inhibitory activity (Fluo-3 calcium fluorescence, FDSS 3000, ATP stimulation);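 also: stimulus was 50 nM ATP with fluorescence followed for 3 min, and the response per well was peak post-ATP fluorescence divided by the reading at measurement start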
# Type: cell-based
# Experimental parameters: C6BU-1 cells stably expressing human P2X3 receptor, Fluo-3 fluorescence, FDSS 3000
Assay endpoint: log10(IC50) (log10 of the value in nM)
Friendly reminder: values = log10 of IC50, unit nM.

COC(=O)[C@@H](C)Cn1c(=O)[nH]/c(=N\c2cccc(CC(C)C)c2)n(Cc2ccc(C)cc2)c1=O : 2.77
CC(=O)OCC(CO)CCn1c(=O)[nH]/c(=N\c2ccc3nc(C)sc3c2)n(Cc2ccc(Cl)cc2)c1=O (stereo not shown) : 0.60
CCc1ccc(Cn2c(=O)n(C[C@H](C)C(=O)O)c(=O)[nH]/c2=N\c2ccc(OC(C)C)cc2)cc1 : 1.64
CCc1oc2ccc(/N=c3\[nH]c(=O)n(CC(N)=O)c(=O)n3Cc3ccc(Cl)cc3)cc2c1C : 0.85
CCOC(=O)C1(Cn2c(=O)[nH]/c(=N\c3ccc(OCC)c(Cl)c3)n(Cc3ccc(Cl)cc3)c2=O)CC1 : 1.15

For the record C[C@@H](Cn1c(=O)[nH]/c(=N\c2ccc(N3CCCCC3)cc2)n(Cc2ccc(Cl)cc2)c1=O)C(=O)O , what value of log10(IC50) is listed for human P2X3 receptor (Homo sapiens (Human), UniProt P56373)?
1.49

For the record O=C(NCCO)c1cc(Oc2ccc(/N=c3\[nH]c(=O)[nH]c(=O)n3Cc3ccc(Cl)cc3)cc2)ccn1 , what value of log10(IC50) is listed for human P2X3 receptor (Homo sapiens (Human), UniProt P56373)?
1.38
